System: T1, human EphB6 (Homo sapiens, UniProt O15197)
T1 construct: a protein of the extracellular region of each human Eph receptor fused with the SEAP protein and the His tag; made in house; host or cells: Expi293F cells
T1 sequence (O15197 32-594 limits assumed): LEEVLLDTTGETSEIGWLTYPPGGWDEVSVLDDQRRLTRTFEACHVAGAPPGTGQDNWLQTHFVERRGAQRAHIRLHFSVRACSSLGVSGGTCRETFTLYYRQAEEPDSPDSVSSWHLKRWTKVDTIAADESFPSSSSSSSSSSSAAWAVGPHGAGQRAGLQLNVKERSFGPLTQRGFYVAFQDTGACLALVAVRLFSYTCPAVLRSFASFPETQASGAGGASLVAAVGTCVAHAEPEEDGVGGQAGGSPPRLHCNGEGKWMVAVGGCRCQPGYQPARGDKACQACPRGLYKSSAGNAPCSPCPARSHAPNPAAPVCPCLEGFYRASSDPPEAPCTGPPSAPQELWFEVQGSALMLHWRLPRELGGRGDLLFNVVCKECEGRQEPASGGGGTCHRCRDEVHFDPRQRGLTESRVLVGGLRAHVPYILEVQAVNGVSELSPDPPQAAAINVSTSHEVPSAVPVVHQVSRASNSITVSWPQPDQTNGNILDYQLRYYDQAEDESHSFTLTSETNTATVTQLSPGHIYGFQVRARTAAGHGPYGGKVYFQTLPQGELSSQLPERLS
Test: Selectivity ELISA of humanized antibodies for human Eph receptor
Format: binding
Reported Conditions: coated protein 1 nM
Readout: hEphB6-SEAP-: absorbance at 450 nm, percentage with respect to hEphA4-SEAP-His as 100%

## Input Recorded hEphB6-SEAP-: absorbance at 450 nm, percentage with respect to hEphA4-SEAP-His as 100% for 69 (antibody, V domains shown, synthetic humanized antibody heavy chain variable region sequence; synthetic humanized antibody light chain variable region sequence) VH: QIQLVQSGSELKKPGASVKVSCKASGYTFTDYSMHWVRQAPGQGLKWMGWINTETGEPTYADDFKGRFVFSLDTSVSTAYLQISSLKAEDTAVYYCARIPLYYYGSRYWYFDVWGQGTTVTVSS VL: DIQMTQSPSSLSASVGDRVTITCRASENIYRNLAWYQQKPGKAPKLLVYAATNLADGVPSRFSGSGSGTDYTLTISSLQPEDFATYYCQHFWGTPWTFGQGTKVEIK , please?
## Output 5.6%

## Input Please give the result for 136 (antibody, V domains shown, synthetic humanized antibody heavy chain variable region sequence; synthetic humanized antibody light chain variable region sequence) VH: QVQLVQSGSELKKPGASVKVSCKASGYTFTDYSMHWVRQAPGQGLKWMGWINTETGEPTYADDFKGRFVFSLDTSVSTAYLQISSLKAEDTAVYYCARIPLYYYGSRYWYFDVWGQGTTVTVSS VL: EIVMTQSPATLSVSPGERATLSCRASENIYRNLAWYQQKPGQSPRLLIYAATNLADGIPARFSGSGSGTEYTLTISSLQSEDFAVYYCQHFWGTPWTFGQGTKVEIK too.
## Output 5.5%
